Reported pKd by item:
Target: HLA-B*44:02
Assay: IEDB peptide-MHC binding, purified MHC/competitive/fluorescence; filed as Kd, often an IC50 or EC50 that approximates it; bounds were set here for any values at or beyond the usual limits of such assays
Details: source organism: Coxiella burnetii
pKd: −log10 of the molar value.

Record excerpt, results attached:
MEVRDLLNSY	≤ 5.30
EEFVKTQSY	≤ 5.30
GEEATAFLRY	≤ 4.30
REMYSRRRMY	≤ 5.30
IERVFYYFPL	≤ 3.00

Query: Item `NEIETATRY` has what recorded pKd?
Reply: ≤ 5.30

Query: Also `FEALHLLYAL` ?
Reply: ≤ 3.00

Query: Also `IEVVKKYMDY` ?
Reply: ≤ 3.00

Query: Also `METPPQSPDF` ?
Reply: ≤ 3.00

Query: Also `KDIQSIVHHY` ?
Reply: ≤ 3.00
